# method_notes: Cytotoxicity against doxorubicin-resistant human UKF-NB-3 cells after 96 hrs by MTT assay
# Format: functional, cell-based
# particulars: UKF-NB-3, 96 h
endpoint_label: IC50 (µM)
Numeric answer only, unit µM assumed.

Qu. What does the record list as IC50 for COc1ccc(C2=N[C@@H](c3ccc(Cl)cc3)[C@@H](c3ccc(Cl)cc3)N2C(=O)N2CCNC(=O)C2)c(OC(C)C)c1 ?
Ans. 5.56

----------
# method_notes: Ratio of drug level in blood to plasma in C57BL/6 mouse after 30 mins
# Type: ADME
# particulars: blood and plasma
endpoint_label: blood plasma ratio at 0.5 h
Form rule: numeric answer, no unit written next to it.

Qu. For the molecule COc1ccc(C2=N[C@@H](c3ccc(Cl)cc3)[C@@H](c3ccc(Cl)cc3)N2C(=O)N2CCNC(=O)C2)c(OC(C)C)c1 , what blood plasma ratio at 0.5 h is on record?
Ans. 0.7

----------
# method_notes: Fraction unbound in C57BL/6 mouse plasma at 300 uM up to 24 hrs by equilibrium dialysis method
# Assay type: ADME, cell-free
endpoint_label: fraction unbound at 24 h, 300 µM
Just the number.

Qu. # input compound: COc1ccc(C2=N[C@@H](c3ccc(Cl)cc3)[C@@H](c3ccc(Cl)cc3)N2C(=O)N2CCNC(=O)C2)c(OC(C)C)c1 ; wanted: its fraction unbound at 24 h, 300 µM
Ans. 0.118

----------
# method_notes: Fraction unbound in C57BL/6 mouse plasma at 0.1 uM up to 24 hrs by equilibrium dialysis method
# Assay type: ADME, cell-free
endpoint_label: fraction unbound at 24 h, 0.1 µM
Number only, no unit.

Qu. fraction unbound at 24 h, 0.1 µM lookup needed for COc1ccc(C2=N[C@@H](c3ccc(Cl)cc3)[C@@H](c3ccc(Cl)cc3)N2C(=O)N2CCNC(=O)C2)c(OC(C)C)c1 [NUTLIN-3] , thanks.
Ans. 0.007
